Reported inhibition at 10 µM is given for each of the following molecules.
Biological target: recombinant human MAO-B (Homo sapiens, UniProt P27338)
Construct: purchased Sigma-Aldrich M7441; host or cells: baculovirus-infected insect cells
Sequence (P27338 whole entry): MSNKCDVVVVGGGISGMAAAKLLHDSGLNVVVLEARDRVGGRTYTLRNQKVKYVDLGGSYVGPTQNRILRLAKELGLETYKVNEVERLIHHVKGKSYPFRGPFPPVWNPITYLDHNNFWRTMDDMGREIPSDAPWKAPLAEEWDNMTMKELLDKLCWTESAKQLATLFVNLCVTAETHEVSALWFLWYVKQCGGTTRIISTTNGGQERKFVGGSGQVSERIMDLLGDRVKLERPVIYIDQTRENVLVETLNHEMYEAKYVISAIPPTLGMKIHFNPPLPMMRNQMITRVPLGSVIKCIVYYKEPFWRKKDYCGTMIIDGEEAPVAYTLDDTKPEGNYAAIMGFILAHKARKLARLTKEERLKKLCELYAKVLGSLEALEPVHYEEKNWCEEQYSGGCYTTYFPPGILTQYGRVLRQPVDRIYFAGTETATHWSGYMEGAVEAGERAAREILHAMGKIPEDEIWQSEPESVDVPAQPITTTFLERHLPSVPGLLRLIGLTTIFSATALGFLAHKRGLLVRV
Assay: Monoamine oxidase assay (Amplex Red), MAO-B
Assay type: biochemical
Settings: at 10,000 nM (10 μM); read-out: % inhibition at indicated concentration, Human MAO-B
Protocol: The determination of MAO-A and MAO-B inhibition was performed using commercially available recombinant human MAO-A and MAO-B enzymes expressed in baculovirus-infected insects sells (Sigma-Aldrich, M7316 and M7441) applying the commercially available Amplex® Red monoamine oxidase assay kit (Invitrogen A12214). The assays were performed as previously described. The determination of rat MAO-B inhibition was performed using mitochondrial-enriched fractions from male Sprague Dawley rat livers. […]

Observe how each entry below is paired with its result.
CCn1c(=O)c2c(nc3n2CCN(Cc2cccc(Cl)c2)C3)n(C)c1=O [Compound 14i]; > 50%
C#CCn1c(=O)c2c(nc3n2CCN(c2cccc(OC)c2)C3)n(CC)c1=O [Compound 20c]; > 50%

Consider the record given below.
Tell me measured inhibition at 10 µM for CCn1c(=O)c2c(nc3n2CCN(Cc2cccc(C(F)(F)F)c2)C3)n(C)c1=O [Compound 14e] please.
> 50%

This collection of values is drawn from paper PMC6028563.
